The measurements presented in this section are drawn from the supplement of paper PMC10724198.

# Tested on: Saccharomyces cerevisiae
# EXPERIMENTAL_DETAILS: protein stability index of tFT-peptide fusion (C-terminal peptide) (PSI (0-1 scale)); higher = more stable (slower turnover)
# RECORDED_CONDITIONS: genetic background: das1 deletion; temperature: 30 C
For each entry below, report its protein stability index value.
Quick one: just the number, no unit, thanks!

The measured protein stability index associated with QKRKSRILSFIK [UBP9 C-terminal 12 aa] reads 0.721

The measured protein stability index associated with NWSNQQINVQSS [PHM8 C-terminal 12 aa] reads 0.717

The measured protein stability index associated with VTGFKDEVLETV [RPS1A C-terminal 12 aa] reads 0.704

The measured protein stability index associated with NKYMNEMLEYMQ [NUF2 C-terminal 12 aa] reads 0.715

The measured protein stability index associated with KIPKTYSELSCL [DUN1 C-terminal 12 aa] reads 0.693

The measured protein stability index associated with QVSLLLGFSSRS [MRX20 C-terminal 12 aa] reads 0.698

The measured protein stability index associated with YILFFLFQLSIM [PEX35 C-terminal 12 aa] reads 0.342

The measured protein stability index associated with VTNPKGRLALEA [RPL32 C-terminal 12 aa] reads 0.661

The measured protein stability index associated with GEVVKTIIFGPE [SOR1 C-terminal 12 aa] reads 0.7

The measured protein stability index associated with SFDVELVGLKFV [YHL019W-A C-terminal 12 aa] reads 0.717

The measured protein stability index associated with NNLHSYEKRLHN [YAR075W C-terminal 12 aa] reads 0.69

The measured protein stability index associated with SYEIVKNGHKNS [APC2 C-terminal 12 aa] reads 0.677

###

# Test system: Saccharomyces cerevisiae
# EXPERIMENTAL_DETAILS: protein stability index of tFT-peptide fusion (C-terminal peptide) (PSI (0-1 scale)); higher = more stable (slower turnover)
# RECORDED_CONDITIONS: genetic background: das1 deletion; temperature: 30 C
For each entry below, report its protein stability index value.
Quick one: just the number, no unit, thanks!

The measured protein stability index associated with KNGKVDPLKNFK [DBP9 C-terminal 12 aa] reads 0.701

The measured protein stability index associated with ISIEELAQYLKK [RIB3 C-terminal 12 aa] reads 0.706

The measured protein stability index associated with EKAERRKLSQGR [QRI5 C-terminal 12 aa] reads 0.686

The measured protein stability index associated with VDIALYLTRSQT [YGR039W C-terminal 12 aa] reads 0.699

The measured protein stability index associated with VVNNRIFSGISK [RSM26 C-terminal 12 aa] reads 0.713

The measured protein stability index associated with GGLDCKSNVFMR [PAC1 C-terminal 12 aa] reads 0.697

The measured protein stability index associated with AAANILFSDHAD [RAD23 C-terminal 12 aa] reads 0.739

The measured protein stability index associated with HFASSLVSFLSK [ICT1 C-terminal 12 aa] reads 0.727

The measured protein stability index associated with RKELEKGKKNSK [YLR363W-A C-terminal 12 aa] reads 0.694

The measured protein stability index associated with YCLAGVLCVFCV [YPR064W C-terminal 12 aa] reads 0.431

The measured protein stability index associated with VPELTEKLGKYK [AIM45 C-terminal 12 aa] reads 0.697

The measured protein stability index associated with QQQQQQQQQQQQ [PUB1 C-terminal 12 aa] reads 0.71
